Items are presented alongside their recorded D (10).
# assay.overview: Particle size distribution of BisEDT samples vs processing conditions (Table 111)
# Format: physicochemical
# cond: BisEDT sample
readout: D (10)

molecule: C1C[S][Bi]([S]CC[S][Bi]2[S]CC[S]2)[S]1 [Sample 2]
readout: D (10)
endpoint.value: 0.58 μm

molecule: C1C[S][Bi]([S]CC[S][Bi]2[S]CC[S]2)[S]1 [Sample 12]
readout: D (10)
endpoint.value: 0.37 μm

molecule: C1C[S][Bi]([S]CC[S][Bi]2[S]CC[S]2)[S]1 [Sample 8]
readout: D (10)
endpoint.value: 0.36 μm

molecule: C1C[S][Bi]([S]CC[S][Bi]2[S]CC[S]2)[S]1 [Sample 11]
readout: D (10)
endpoint.value: 0.38 μm

molecule: C1C[S][Bi]([S]CC[S][Bi]2[S]CC[S]2)[S]1 [Sample 9]
readout: D (10)
endpoint.value: 0.67 μm

molecule: C1C[S][Bi]([S]CC[S][Bi]2[S]CC[S]2)[S]1 [Sample 10]
readout: D (10)
endpoint.value: 0.36 μm

molecule: C1C[S][Bi]([S]CC[S][Bi]2[S]CC[S]2)[S]1 [Sample 7]
readout: D (10)
endpoint.value: 0.39 μm

molecule: C1C[S][Bi]([S]CC[S][Bi]2[S]CC[S]2)[S]1 [Sample 15]
readout: D (10)
endpoint.value: 0.32 μm

molecule: C1C[S][Bi]([S]CC[S][Bi]2[S]CC[S]2)[S]1 [Sample 13]
readout: D (10)
endpoint.value: 0.36 μm

molecule: C1C[S][Bi]([S]CC[S][Bi]2[S]CC[S]2)[S]1 [Sample 6]
readout: D (10)
endpoint.value: 0.34 μm

molecule: C1C[S][Bi]([S]CC[S][Bi]2[S]CC[S]2)[S]1 [Sample 4]
readout: D (10)
endpoint.value: 0.44 μm

molecule: C1C[S][Bi]([S]CC[S][Bi]2[S]CC[S]2)[S]1 [Sample 5]
readout: D (10)
endpoint.value: 0.33 μm

molecule: C1C[S][Bi]([S]CC[S][Bi]2[S]CC[S]2)[S]1 [Sample 14]
readout: D (10)
endpoint.value: 0.36 μm

molecule: C1C[S][Bi]([S]CC[S][Bi]2[S]CC[S]2)[S]1.SCCS [Sample 3]
readout: D (10)
endpoint.value: 0.59 μm

molecule: C1C[S][Bi]([S]CC[S][Bi]2[S]CC[S]2)[S]1.SCCS [Sample 1]
readout: D (10)
endpoint.value: 0.80 μm

###

# MIC values compiled below
# Test system: vancomycin-intermediate Staphylococcus aureus (VISA)
# assay.overview: Broth microdilution MIC (Example 12)
# cond: S. aureus NRS 18
readout: MIC (µg/mL)

compound: C[C@H]1COc2c(N3CCN(C)CC3)c(F)cc3c(=O)c(C(=O)O)cn1c23
measure.unit: µg/mL
cmp: =
endpoint.value: 4

compound: CCCCCCCCCC(=O)NC(Cc1c[nH]c2ccccc12)C(=O)NC(CC(N)=O)C(=O)NC(CC(=O)O)C(=O)NC1C(=O)NCC(=O)NC(CCCN)C(=O)NC(CC(=O)O)C(=O)NC(C)C(=O)NC(CC(=O)O)C(=O)NCC(=O)NC(CO)C(=O)NC(C(C)CC(=O)O)C(=O)NC(CC(=O)c2ccccc2N)C(=O)OC1C (centres unmarked)
measure.unit: µg/mL
cmp: =
endpoint.value: 0.5

compound: CC(=O)NC[C@H]1CN(c2ccc(N3CCOCC3)c(F)c2)C(=O)O1
measure.unit: µg/mL
cmp: =
endpoint.value: 1

compound: CCC[C@@H]1C[C@@H](C(=O)N[C@@H]([C@H]2O[C@H](SC)[C@H](O)[C@@H](O)[C@H]2O)[C@H](C)Cl)N(C)C1
measure.unit: µg/mL
cmp: >
endpoint.value: 8

compound: CN[C@H](CC(C)C)C(=O)N[C@H]1C(=O)N[C@@H](CC(N)=O)C(=O)N[C@H]2C(=O)N[C@H]3C(=O)N[C@H](C(=O)N[C@H](C(=O)O)c4cc(O)cc(O)c4-c4cc3ccc4O)[C@H](O)c3ccc(c(Cl)c3)Oc3cc2cc(c3O[C@@H]2O[C@H](CO)[C@@H](O)[C@H](O)[C@H]2O[C@H]2C[C@](C)(N)[C@H](O)[C@H](C)O2)Oc2ccc(cc2Cl)[C@H]1O
measure.unit: µg/mL
cmp: =
endpoint.value: 4
